These entries and their values trace back to ChEMBL document CHEMBL1139192.

# tgt: Tyrosine-protein kinase Blk (Mus musculus) (UniProt P16277)
# Sequence (P16277 whole entry): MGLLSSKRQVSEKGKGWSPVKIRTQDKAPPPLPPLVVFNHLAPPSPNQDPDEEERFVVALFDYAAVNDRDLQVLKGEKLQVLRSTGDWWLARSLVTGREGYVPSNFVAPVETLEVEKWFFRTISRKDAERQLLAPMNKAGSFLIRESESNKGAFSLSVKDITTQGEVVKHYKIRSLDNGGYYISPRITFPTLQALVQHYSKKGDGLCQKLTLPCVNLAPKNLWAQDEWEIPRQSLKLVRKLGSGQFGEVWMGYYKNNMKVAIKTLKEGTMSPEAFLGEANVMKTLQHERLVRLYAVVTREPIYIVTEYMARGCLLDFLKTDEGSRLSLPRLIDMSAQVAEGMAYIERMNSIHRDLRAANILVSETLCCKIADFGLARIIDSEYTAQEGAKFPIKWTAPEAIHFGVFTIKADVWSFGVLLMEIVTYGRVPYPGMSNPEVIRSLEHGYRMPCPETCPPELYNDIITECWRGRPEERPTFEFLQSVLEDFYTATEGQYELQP
# test_protocol: Inhibition of mouse Blk at 1 uM relative to control; values are per cent of control
Recorded residual activity for the following compounds
Reply numerically in %, unit not repeated.

Some entries whose results are on file:
INSERT INTO assay_data (smiles_record, measure_name, assay_value) VALUES
  ('CN(C)c1nc2ccc1CCCn1cc(c3ccccc31)C1=C(C(=O)NC1=O)c1cn(c3ccccc13)CC2', 'residual activity', 109),
  ('O=C1NC(=O)C2=C1c1cn(c3ccccc13)CCCc1cc(nc(N3CCCC3)c1)CCCn1cc2c2ccccc21', 'residual activity', 74),
  ('CN(C)c1cc2cc(n1)CCCn1cc(c3ccccc31)C1=C(C(=O)NC1=O)c1cn(c3ccccc13)CCC2', 'residual activity', 70);

Here's the next entry for you.
Simply: O=C1NC(=O)C2=C1c1cn(c3ccccc13)CCCc1ccc(c(N3CCCC3)n1)CCCn1cc2c2ccccc21 , Tyrosine-protein kinase Blk (Mus musculus) (UniProt P16277), residual activity = 91

###

# tgt: Tyrosine-protein kinase Lck (Homo sapiens)
# test_protocol: Inhibition of human Lck at 1 uM relative to control; values are per cent of control
Recorded residual activity for the following compounds
Reply numerically in %, unit not repeated.

INSERT INTO results (smiles_record, assay_value) VALUES
  ('O=C1NC(=O)C2=C1c1cn(c3ccccc13)CCCc1ccc(c(N3CCCC3)n1)CCCn1cc2c2ccccc21', 90),
  ('CN(C)c1cc2cc(n1)CCCn1cc(c3ccccc31)C1=C(C(=O)NC1=O)c1cn(c3ccccc13)CCC2', 100),
  ('CN(C)c1nc2ccc1CCCn1cc(c3ccccc31)C1=C(C(=O)NC1=O)c1cn(c3ccccc13)CC2', 96);

Here's the next entry for you.
residual activity for O=C1NC(=O)C2=C1c1cn(c3ccccc13)CCCc1cc(nc(N3CCCC3)c1)CCCn1cc2c2ccccc21 is 99

###

# Organism: Homo sapiens
# test_protocol: Inhibition of human PKA at 1 uM relative to control; values are per cent of control
Recorded residual activity for the following molecules
Reply numerically in %, unit not repeated.

Some entries whose results are on file:
INSERT INTO results (smiles_record, assay_value) VALUES
  ('CN(C)c1cc2cc(n1)CCCn1cc(c3ccccc31)C1=C(C(=O)NC1=O)c1cn(c3ccccc13)CCC2', 95),
  ('CN(C)c1nc2ccc1CCCn1cc(c3ccccc31)C1=C(C(=O)NC1=O)c1cn(c3ccccc13)CC2', 90),
  ('O=C1NC(=O)C2=C1c1cn(c3ccccc13)CCCc1cc(nc(N3CCCC3)c1)CCCn1cc2c2ccccc21', 104);

Here's the next entry for you.
residual activity for O=C1NC(=O)C2=C1c1cn(c3ccccc13)CCCc1ccc(c(N3CCCC3)n1)CCCn1cc2c2ccccc21 is 102

###

# tgt: UniProtKB P08581
# Sequence (P08581 whole entry): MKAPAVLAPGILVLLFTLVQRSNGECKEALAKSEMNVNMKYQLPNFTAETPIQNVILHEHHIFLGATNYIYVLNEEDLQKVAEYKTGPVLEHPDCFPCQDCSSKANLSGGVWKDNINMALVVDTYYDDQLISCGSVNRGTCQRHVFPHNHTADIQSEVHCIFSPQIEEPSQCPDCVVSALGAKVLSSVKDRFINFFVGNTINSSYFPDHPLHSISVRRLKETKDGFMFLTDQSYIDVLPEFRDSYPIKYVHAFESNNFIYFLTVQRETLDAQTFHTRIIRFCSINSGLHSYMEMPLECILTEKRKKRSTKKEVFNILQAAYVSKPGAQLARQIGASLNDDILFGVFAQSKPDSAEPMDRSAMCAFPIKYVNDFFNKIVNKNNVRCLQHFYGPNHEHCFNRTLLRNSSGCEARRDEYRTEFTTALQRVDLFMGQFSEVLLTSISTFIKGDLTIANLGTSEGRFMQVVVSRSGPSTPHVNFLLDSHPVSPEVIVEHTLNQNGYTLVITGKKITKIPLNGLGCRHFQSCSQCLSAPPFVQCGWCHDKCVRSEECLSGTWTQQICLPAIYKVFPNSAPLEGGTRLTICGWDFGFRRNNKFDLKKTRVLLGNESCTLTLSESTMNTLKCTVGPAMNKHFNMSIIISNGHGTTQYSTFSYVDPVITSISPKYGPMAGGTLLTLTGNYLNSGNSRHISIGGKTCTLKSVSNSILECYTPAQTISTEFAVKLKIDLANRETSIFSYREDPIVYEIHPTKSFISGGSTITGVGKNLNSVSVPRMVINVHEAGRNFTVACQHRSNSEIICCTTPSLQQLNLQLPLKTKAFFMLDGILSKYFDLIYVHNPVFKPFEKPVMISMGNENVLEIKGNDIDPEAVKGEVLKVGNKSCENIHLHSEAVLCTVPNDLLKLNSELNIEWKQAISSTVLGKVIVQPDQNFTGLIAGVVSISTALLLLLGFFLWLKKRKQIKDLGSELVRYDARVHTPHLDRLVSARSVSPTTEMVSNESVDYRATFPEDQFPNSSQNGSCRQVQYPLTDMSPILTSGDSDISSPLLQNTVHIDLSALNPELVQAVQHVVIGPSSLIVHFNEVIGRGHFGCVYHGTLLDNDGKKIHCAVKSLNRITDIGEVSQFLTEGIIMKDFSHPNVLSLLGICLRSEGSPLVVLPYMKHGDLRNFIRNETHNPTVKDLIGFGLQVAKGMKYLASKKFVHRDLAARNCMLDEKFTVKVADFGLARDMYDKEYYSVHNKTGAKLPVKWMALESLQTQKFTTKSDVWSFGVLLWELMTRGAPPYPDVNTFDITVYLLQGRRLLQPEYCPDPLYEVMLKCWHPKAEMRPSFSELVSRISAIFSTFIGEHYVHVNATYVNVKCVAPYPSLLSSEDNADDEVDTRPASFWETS
# test_protocol: Inhibition of human Met at 1 uM relative to control; values are per cent of control
measure_name: residual activity (%)
Reply numerically in %, unit not repeated.

Some entries whose results are on file:
INSERT INTO measurements (smiles_record, value_unit, assay_value) VALUES
  ('O=C1NC(=O)C2=C1c1cn(c3ccccc13)CCCc1cc(nc(N3CCCC3)c1)CCCn1cc2c2ccccc21', '%', 129),
  ('CN(C)c1cc2cc(n1)CCCn1cc(c3ccccc31)C1=C(C(=O)NC1=O)c1cn(c3ccccc13)CCC2', '%', 132),
  ('CN(C)c1nc2ccc1CCCn1cc(c3ccccc31)C1=C(C(=O)NC1=O)c1cn(c3ccccc13)CC2', '%', 121);

Here's the next entry for you.
residual activity for O=C1NC(=O)C2=C1c1cn(c3ccccc13)CCCc1ccc(c(N3CCCC3)n1)CCCn1cc2c2ccccc21 is 132
